molecular target: T1, Rluc-ADGRG2-ΔGPS-β F845A (mouse, UniProt Q8CJ12-3 38-995, F845A); test: FRET or BRET; HEK293 cells transfected with Rluc-ADGRG2-ΔGPS-β WT or mutants, stimulated by increasing concentrations of FITC-conjugated VPM-p15; saturation curves fitted with GraphPad; each experiment repeated 6 times; details: one partner purified
T1 construct: ADGRG2 (GPR64), mouse, ADGRG2-ΔGPS-β: the entire ECD removed; source: HEK293, transfected, on cells; not shown: Rluc, N-terminal, kept
T1 sequence (Q8CJ12 other isoform, or with tags, fused parts or gaps F845A | F845A | F845A F845A): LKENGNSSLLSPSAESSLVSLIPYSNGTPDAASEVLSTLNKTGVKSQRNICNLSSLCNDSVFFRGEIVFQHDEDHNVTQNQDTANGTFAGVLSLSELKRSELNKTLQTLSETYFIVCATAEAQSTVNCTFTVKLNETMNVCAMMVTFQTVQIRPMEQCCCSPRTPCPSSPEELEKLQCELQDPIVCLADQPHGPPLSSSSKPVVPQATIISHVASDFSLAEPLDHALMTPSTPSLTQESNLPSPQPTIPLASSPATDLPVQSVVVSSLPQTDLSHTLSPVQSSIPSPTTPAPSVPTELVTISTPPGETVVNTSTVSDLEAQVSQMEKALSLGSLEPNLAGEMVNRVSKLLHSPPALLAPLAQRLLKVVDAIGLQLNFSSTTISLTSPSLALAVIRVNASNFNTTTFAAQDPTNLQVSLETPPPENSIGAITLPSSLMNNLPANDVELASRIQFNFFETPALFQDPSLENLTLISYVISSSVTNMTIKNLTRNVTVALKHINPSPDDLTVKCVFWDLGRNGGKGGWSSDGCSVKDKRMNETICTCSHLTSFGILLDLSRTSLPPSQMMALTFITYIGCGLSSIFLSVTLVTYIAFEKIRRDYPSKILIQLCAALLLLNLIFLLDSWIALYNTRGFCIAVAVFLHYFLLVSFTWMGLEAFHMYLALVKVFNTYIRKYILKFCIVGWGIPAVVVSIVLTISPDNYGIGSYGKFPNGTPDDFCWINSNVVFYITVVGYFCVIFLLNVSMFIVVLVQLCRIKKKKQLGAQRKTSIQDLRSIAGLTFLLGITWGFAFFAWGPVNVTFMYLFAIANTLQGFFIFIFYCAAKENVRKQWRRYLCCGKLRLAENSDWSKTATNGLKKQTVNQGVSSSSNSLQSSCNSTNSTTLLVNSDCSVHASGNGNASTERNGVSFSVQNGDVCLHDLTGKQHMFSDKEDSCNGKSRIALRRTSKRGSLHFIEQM
Non-standard residues stand in square brackets, D forms with d. Primed or numbered codes have the meaning given here. No end group written: not given here. Phe(4-Me) = Cc1ccc(C[C@H](N)C(=O)O)cc1; FITC′ = not defined here

[
  {
    "binder": "VS[Phe(4-Me)]GILLDLSRTSLP-{FITC′} [FITC-conjugated VPM-p15 (ADGRG2 Stachel peptide p15 T1V/F3Phe(4-Me))]",
    "EC50 (nM)": 1360
  }
]
